# System: MCF7 cells
# procedure_summary: In vitro cell proliferation assays (Examples 902 and 903), MCF7
# Format: cell-based
# condition: Homo sapiens, MCF7, Table 1a, read-out: ER-alpha MCF7 HCS (EC50)
Threshold check on EC50: strictly below 0.05 nM is rule met; on or above 0.05 nM is rule not met.

Inquiry: Record "C[C@@H]1Cc2c([nH]c3ccccc23)[C@@H](c2ccc([C@H](F)C3CN(CCCF)C3)cc2F)N1CC(F)(F)CO" : is its EC50 strictly below 0.05 nM?
Reply text: rule met

Inquiry: Say whether its EC50 is strictly beneath 0.05 nM. Entry: "C[C@@H]1Cc2c([nH]c3ccccc23)[C@@H](c2c(F)cc([C@@H](O)C3CN(CCCF)C3)cc2F)N1CC(F)(F)F"
Reply text: rule met

Inquiry: I'd appreciate it if you could check whether "C[C@@H]1Cc2c([nH]c3ccccc23)[C@@H](c2c(F)cc([C@@H](F)C3CN(CCCF)C3)cc2F)N1CC(C)(C)F" has EC50 smaller than 0.05 nM.
Reply text: rule not met

Inquiry: For this molecule, is EC50 lower than 0.05 nM? C[C@@H]1Cc2c([nH]c3ccccc23)[C@@H](c2ccc(C(O)C3CN(CCCF)C3)cc2F)N1CC(F)(F)CO (stereo partly drawn)
Reply text: rule met

Inquiry: Given the entry "C[C@@H]1Cc2c([nH]c3ccccc23)[C@@H](c2ccc([C@@H](O)C3CN(CCCF)C3)cc2F)N1CC(F)(F)CO" , would its reported EC50 be below 0.05 nM?
Reply text: rule met

Inquiry: I'd appreciate it if you could check whether C[C@@H]1Cc2c([nH]c3ccccc23)[C@@H](c2c(F)cc([C@H](O)C3CN(CCCF)C3)cc2F)N1C[C@H](F)CO (single isomer, unassigned) has EC50 smaller than 0.05 nM.
Reply text: rule not met

Inquiry: Please indicate whether the reported EC50 of C[C@@H]1Cc2c([nH]c3c(F)cccc23)[C@@H](c2c(F)cc([C@@H](O)C3CN(CCCF)C3)cc2F)N1CC(F)(F)CO (single isomer, unassigned) is strictly below 0.05 nM.
Reply text: rule not met

Inquiry: Find out if reported EC50 for C[C@@H]1Cc2c([nH]c3ccccc23)[C@@H](c2c(F)cc([C@@H](O)C3CN(CCCF)C3)cc2F)N1C[C@H](F)CO (single isomer, unassigned) is less than 0.05 nM
Reply text: rule not met
